system_name: neutrophil elastase in human plasma (Homo sapiens (Human), UniProt P08246)
Sequence (P08246 30-247): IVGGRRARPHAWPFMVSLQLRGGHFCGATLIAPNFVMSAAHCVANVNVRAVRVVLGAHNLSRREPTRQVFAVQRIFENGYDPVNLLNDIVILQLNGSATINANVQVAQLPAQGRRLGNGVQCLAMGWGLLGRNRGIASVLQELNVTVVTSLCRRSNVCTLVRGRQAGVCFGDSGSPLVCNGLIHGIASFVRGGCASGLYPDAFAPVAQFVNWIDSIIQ
test_description: Neutrophil elastase inhibitory activity in human plasma
experimental_context: human plasma assay (zymosan-stimulated blood plasma), substrate 250 μM, pH 7.5
This section presents molecules with their documented IC50 values.
Number only, in nM; omit the unit.

Answered examples (3):
| molecule | test_result |
| --- | --- |
| CN1CCC2=C(C1=O)[C@@H](c1ccc(C#N)cc1)N(C)C(=O)N2c1cccc(C(F)(F)F)c1 | 2 |
| N#Cc1ccc(C2NC(=O)N(c3cccc(C(F)(F)F)c3)C3=C2C(=O)NCC3)cc1 (racemic) | 11 |
| CN1C(=O)N(c2cccc(C(F)(F)F)c2)C2=C(C(=O)NCC2)C1c1ccc(C#N)cc1Br (centres unmarked) | 2.5 |

INPUT: # value lookup — system neutrophil elastase in human plasma (Homo sapiens (Human), UniProt P08246), readout IC50, item CN1C(=O)N(c2cccc(C(F)(F)F)c2)C2=C(C(=O)NCC2)C1c1ccc(C#N)cc1C(F)(F)F (centres unmarked)
OUTPUT: 1.1

INPUT: # value lookup — system neutrophil elastase in human plasma (Homo sapiens (Human), UniProt P08246), readout IC50, item N#Cc1ccc(C2NC(=O)N(c3cccc(C(F)(F)F)c3)C3=C2C(=O)N(C(=O)NCCO)CC3)cc1 (centres unmarked)
OUTPUT: 6.7

INPUT: # value lookup — system neutrophil elastase in human plasma (Homo sapiens (Human), UniProt P08246), readout IC50, item CN1CCC2=C(C1=O)C(c1ccc(C#N)cc1-c1ccc(=O)n(C)n1)N(C)C(=O)N2c1cccc(C(F)(F)F)c1 (centres unmarked)
OUTPUT: 1

INPUT: # value lookup — system neutrophil elastase in human plasma (Homo sapiens (Human), UniProt P08246), readout IC50, item CN1C(=O)N(c2cccc(C(F)(F)F)c2)C2=C(C(=O)NCC2)C1c1ccc(C#N)cc1-c1cnco1 (racemic)
OUTPUT: 1.5

INPUT: # value lookup — system neutrophil elastase in human plasma (Homo sapiens (Human), UniProt P08246), readout IC50, item CCNC(=O)CN1C(=O)N(c2cccc(C(F)(F)F)c2)C2=C(C(=O)NCC2)C1c1ccc(C#N)cc1 (centres unmarked)
OUTPUT: 2.5

---

system_name: neutrophil elastase in human plasma (Homo sapiens (Human))
test_description: Neutrophil elastase inhibitory activity in human plasma
experimental_context: human plasma assay (zymosan-stimulated blood plasma), substrate 250 μM, pH 7.5
quantity: pIC50
Notebook: values listed as pIC50 are -log10 of the concentration (mol/L).

| molecule | test_result |
| --- | --- |
| N#Cc1ccc(C2C3=C(CCNC3=O)N(c3cccc(C(F)(F)F)c3)C(=O)N2CC(=O)NCCO)cc1 (stereo not drawn) [Example 12.3] | 8.44 |
| CN1C(=O)N(c2cccc(C(F)(F)F)c2)C2=C(C(=O)NCC2)C1c1ccc(C#N)cc1-c1cnn(C)c1 (racemic) [Example 26] | 8.85 |
| CN1C(=O)N(c2cccc(C(F)(F)F)c2)C2=C(C(=O)NCC2)C1c1ccc(C#N)cc1-c1cccnc1 (stereo not drawn) [Example 34] | 8.80 |

// moving on: another record for pIC50
INPUT: # value lookup — system neutrophil elastase in human plasma (Homo sapiens (Human)), readout pIC50, item N#Cc1ccc([C@H]2NC(=O)N(c3cccc(C(F)(F)F)c3)C3=C2C(=O)NCC3)cc1 [Example 1A]
OUTPUT: 8.47

---

This section presents compounds with their documented Papp A→B at 10 µM values.
test_description: Drug transport across human Caco-2 cells
Assay type: in vitro ADME
experimental_context: human; apical-to-basal, Caco-2 monolayers, pH 7.2, 37° C.; read-out: PEAB
Number only, in ×10⁻⁶ cm/s; omit the unit.

Answered examples (3):
| compound | Papp A→B at 10 µM, ×10⁻⁶ cm/s |
| --- | --- |
| CN1C(=O)N(c2cccc(C(F)F)c2)C2=C(C(=O)NCC2)[C@H]1c1ccc(C#N)cc1 | 20 |
| CN1C(=O)N(c2cccc(C(F)(F)F)c2)C2=C(C(=O)NCC2)[C@H]1c1ccc(C#N)cc1-c1cnco1 [Example 30A] | 11 |
| CN1C(=O)N(c2cccc(C(F)(F)F)c2)C2=C(C(=O)NCC2)[C@H]1c1ccc(C#N)cc1-c1cnn(C)c1 [Example 31A] | 12 |

INPUT: Would you mind telling me what Papp A→B at 10 µM value was observed for CN1CCC2=C(C1=O)C(c1ccc(C#N)cc1C(N)=O)N(C)C(=O)N2c1cccc(C(F)(F)F)c1 (stereo not shown) ?
OUTPUT: 4.2

---

system_name: Human neutrophil elastase (Homo sapiens (Human), UniProt P08246)
Sequence (P08246 30-247): as above
test_description: Human Neutrophil Elastase Assay
experimental_context: substrate MeOSuc-Ala-Ala-Pro-Val-AMC 250 μM, pH 7.5, room temperature
This section presents compounds with their documented pIC50 values.
Notebook: values listed as pIC50 are -log10 of the concentration (mol/L).

| compound | system_name | pIC50 |
| --- | --- | --- |
| COC(=O)CN1C(=O)N(c2cccc(C(F)(F)F)c2)C2=C(C(=O)NCC2)C1c1ccc(C#N)cc1 (stereo not shown) | Human neutrophil elastase (Homo sapiens (Human), UniProt P08246) | 8.64 |

INPUT: # value lookup — system Human neutrophil elastase (Homo sapiens (Human), UniProt P08246), readout pIC50, item CNC(=O)CN1C(=O)N(c2cccc(C(F)(F)F)c2)C2=C(C(=O)NCC2)[C@@H]1c1ccc(C#N)cc1 [Example 12B]
OUTPUT: 5.92

INPUT: # value lookup — system Human neutrophil elastase (Homo sapiens (Human), UniProt P08246), readout pIC50, item CN1C(=O)N(c2cccc(C(F)(F)F)c2)C2=C(C(=O)NCC2)[C@@H]1c1ccc(C#N)cc1-c1cnn(C)c1 [Example 31B]
OUTPUT: 7.77

INPUT: # value lookup — system Human neutrophil elastase (Homo sapiens (Human), UniProt P08246), readout pIC50, item N#Cc1ccc(C2C3=C(CCNC3=O)N(c3cccc(C(F)(F)F)c3)C(=O)N2CC(N)=O)cc1 (stereo not shown)
OUTPUT: 8.52

---

system_name: Human neutrophil elastase (Homo sapiens (Human))
test_description: Human Neutrophil Elastase Assay
experimental_context: substrate MeOSuc-Ala-Ala-Pro-Val-AMC 250 μM, pH 7.5, room temperature
This section presents compounds with their documented IC50 values.

| compound | IC50 |
| --- | --- |
| CN1CCC2=C(C1=O)C(c1ccc(C#N)cc1)N(CC(N)=O)C(=O)N2c1cccc(C(F)(F)F)c1 (stereo not shown) | 3 nM |
| N#Cc1ccc(C2NC(=O)N(c3cccc(C(F)(F)F)c3)C3=C2C(=O)NCC3)c(C(F)(F)F)c1 (stereo not shown) | < 1 nM |

INPUT: Would you mind telling me what IC50 value was observed for N#Cc1ccc(C2C3=C(CCNC3=O)N(c3cccc(C(F)(F)F)c3)C(=O)N2CC(=O)NCCO)cc1 (stereo not shown) ?
OUTPUT: 2.1 nM

INPUT: Would you mind telling me what IC50 value was observed for CN1C(=O)N(c2cccc(C(F)(F)F)c2)C2=C(C(=O)NCC2)C1c1ccc(C#N)cc1-c1ccncc1 (stereo not shown) ?
OUTPUT: < 1 nM

---

Measured IC50 (cytochrome P450 2C9 (Homo sapiens (Human)))

| molecule | IC50 |
| --- | --- |
| N#Cc1ccc([C@H]2NC(=O)N(c3cccc(C(F)(F)F)c3)C3=C2C(=O)NCC3)cc1 [Example 1A] | > 50 µM |

INPUT: # value lookup — system cytochrome P450 2C9 (Homo sapiens (Human)), readout IC50, item CN1C(=O)N(c2cccc(C(F)(F)F)c2)C2=C(C(=O)NCC2)[C@H]1c1ccc(C#N)cc1-c1cnn(C)c1 [Example 31A]
OUTPUT: > 50 µM

---

test_description: Drug transport across human Caco-2 cells
Format: in vitro ADME
experimental_context: human; apical-to-basal, Caco-2 monolayers, pH 7.2, 37° C.; read-out: PEAB
quantity: Papp A→B at 10 µM (×10⁻⁶ cm/s)
Number only, in ×10⁻⁶ cm/s; omit the unit.

INPUT: Would you mind telling me what Papp A→B at 10 µM value was observed for CN1C(=O)N(c2cccc(C(F)(F)F)c2)C2=C(C(=O)NCC2)C1c1ccc(C#N)cc1-c1ccncn1 (stereo not shown) [Example 35] ?
OUTPUT: 5.7

INPUT: Would you mind telling me what Papp A→B at 10 µM value was observed for CN1C(=O)N(c2cccc(C(F)(F)F)c2)C2=C(C(=O)NCC2)C1c1ccc(C#N)cc1-c1cccnc1 (stereo not shown) [Example 34] ?
OUTPUT: 11

INPUT: Would you mind telling me what Papp A→B at 10 µM value was observed for N#Cc1ccc([C@H]2NC(=O)N(c3cccc(C(F)(F)F)c3)C3=C2C(=O)NCC3)cc1 [Example 1A] ?
OUTPUT: 6.6

INPUT: Would you mind telling me what Papp A→B at 10 µM value was observed for CN1CCC2=C(C1=O)C(c1ccc(C#N)cc1-c1cnn(C)c1)N(C)C(=O)N2c1cccc(C(F)(F)F)c1 (stereo not shown) [Example 36] ?
OUTPUT: 30
